- assay target: Dog NOP receptor
- procedure summary: NOP receptor binding, brain
- assay conditions: Mean±S.E.M.
observation type: Ki (nM)
Express it in nM; write the number only.

Ask: Item under review: OC1(c2ncccn2)CC2CCC(C1)N2C(c1ccccc1Cl)c1ccccc1Cl (stereo not shown) [SCH 486757] . Reported Ki?
Result: 5.3

====

- assay target: Guinea pig NOP receptor (Cavia porcellus)
- Sequence (P47748 whole entry): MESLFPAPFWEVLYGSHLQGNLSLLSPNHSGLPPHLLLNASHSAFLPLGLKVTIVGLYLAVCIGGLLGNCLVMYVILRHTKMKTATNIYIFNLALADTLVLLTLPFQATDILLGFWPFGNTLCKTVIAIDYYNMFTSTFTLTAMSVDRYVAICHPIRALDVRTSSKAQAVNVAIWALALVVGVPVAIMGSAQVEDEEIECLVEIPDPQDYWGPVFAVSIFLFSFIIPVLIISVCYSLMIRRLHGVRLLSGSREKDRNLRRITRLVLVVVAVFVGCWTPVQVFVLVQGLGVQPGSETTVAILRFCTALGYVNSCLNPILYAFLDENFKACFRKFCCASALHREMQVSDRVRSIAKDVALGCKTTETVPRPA
observation type: pKi
Hey, just a heads up that pKi is the negative log base 10 of the concentration in molar.

Ask: Item: OC1(c2ncccn2)CC2CCC(C1)N2C(c1ccccc1Cl)c1ccccc1Cl (stereo not shown) [SCH 486757] Test system: Guinea pig NOP receptor (Cavia porcellus) Read-out: pKi Value: ?
Result: 8.27

====

- assay target: Dopamine transporter (Homo sapiens, UniProt Q01959)
- Sequence (Q01959 whole entry): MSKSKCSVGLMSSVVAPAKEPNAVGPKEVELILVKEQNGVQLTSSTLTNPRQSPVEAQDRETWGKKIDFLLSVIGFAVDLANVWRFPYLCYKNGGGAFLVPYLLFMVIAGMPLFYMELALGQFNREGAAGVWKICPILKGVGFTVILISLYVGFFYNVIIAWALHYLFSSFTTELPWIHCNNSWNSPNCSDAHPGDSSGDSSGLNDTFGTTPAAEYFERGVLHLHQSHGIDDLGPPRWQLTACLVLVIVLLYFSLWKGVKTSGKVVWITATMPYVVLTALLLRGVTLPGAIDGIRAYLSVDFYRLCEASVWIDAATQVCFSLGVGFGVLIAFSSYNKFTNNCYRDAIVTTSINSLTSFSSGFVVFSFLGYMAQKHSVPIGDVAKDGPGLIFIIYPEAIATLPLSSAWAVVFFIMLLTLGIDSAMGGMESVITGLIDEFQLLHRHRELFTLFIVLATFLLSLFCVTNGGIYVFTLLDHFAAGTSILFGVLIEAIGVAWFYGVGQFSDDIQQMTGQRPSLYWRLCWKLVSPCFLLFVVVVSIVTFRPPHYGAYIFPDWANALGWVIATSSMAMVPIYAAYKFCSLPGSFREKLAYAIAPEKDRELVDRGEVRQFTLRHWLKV
observation type: Ki (µM)
Express it in µM; write the number only.

Ask: Item: OC1(c2ncccn2)CC2CCC(C1)N2C(c1ccccc1Cl)c1ccccc1Cl (stereo not shown) [SCH 486757] Test system: Dopamine transporter (Homo sapiens, UniProt Q01959) Read-out: Ki Value: ?
Result: 8.43

====

- procedure summary: Pharmacokinetic profile in the dog
- Format: in vivo
- assay conditions: 3 mg/kg p.o.
observation type: Cmax (nM)
Express it in nM; write the number only.

Ask: Item under review: OC1(c2ncccn2)CC2CCC(C1)N2C(c1ccccc1Cl)c1ccccc1Cl (stereo not shown) . Reported Cmax?
Result: 540

====

- assay target: Sodium channel, site 2
- procedure summary: MDS Pharma Services counterscreen binding
- assay conditions: site 2 (rat), semi-quantitative
observation type: Ki (µM)
Express it in µM; write the number only.

Ask: Item under review: OC1(c2ncccn2)CC2CCC(C1)N2C(c1ccccc1Cl)c1ccccc1Cl (stereo not shown) . Reported Ki?
Result: 5.58

====

- assay target: Rat NOP receptor (Rattus norvegicus, UniProt P35370)
- Sequence (P35370 whole entry): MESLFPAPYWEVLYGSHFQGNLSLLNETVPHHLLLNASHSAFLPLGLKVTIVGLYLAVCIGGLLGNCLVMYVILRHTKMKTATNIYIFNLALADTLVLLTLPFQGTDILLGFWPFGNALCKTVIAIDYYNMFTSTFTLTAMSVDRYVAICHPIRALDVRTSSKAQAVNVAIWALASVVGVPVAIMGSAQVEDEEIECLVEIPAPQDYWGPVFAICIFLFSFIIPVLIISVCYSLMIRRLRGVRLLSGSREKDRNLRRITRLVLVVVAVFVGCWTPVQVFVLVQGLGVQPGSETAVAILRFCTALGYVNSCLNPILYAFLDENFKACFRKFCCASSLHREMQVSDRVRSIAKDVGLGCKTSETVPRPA
observation type: Ki (nM)
Express it in nM; write the number only.

Ask: Item under review: OC1(c2ncccn2)CC2CCC(C1)N2C(c1ccccc1Cl)c1ccccc1Cl (stereo not shown) . Reported Ki?
Result: 6.6

====

- assay target: Sigma (non-selective)
- procedure summary: MDS Pharma Services counterscreen binding
- assay conditions: Sigma (non-selective, guinea pig); semi-quantitative
observation type: Ki (µM)
Express it in µM; write the number only.

Ask: Item under review: OC1(c2ncccn2)CC2CCC(C1)N2C(c1ccccc1Cl)c1ccccc1Cl (stereo not shown) . Reported Ki?
Result: 7.12

====

- assay target: Dopamine D3 (Homo sapiens, UniProt P35462)
- Sequence (P35462 whole entry): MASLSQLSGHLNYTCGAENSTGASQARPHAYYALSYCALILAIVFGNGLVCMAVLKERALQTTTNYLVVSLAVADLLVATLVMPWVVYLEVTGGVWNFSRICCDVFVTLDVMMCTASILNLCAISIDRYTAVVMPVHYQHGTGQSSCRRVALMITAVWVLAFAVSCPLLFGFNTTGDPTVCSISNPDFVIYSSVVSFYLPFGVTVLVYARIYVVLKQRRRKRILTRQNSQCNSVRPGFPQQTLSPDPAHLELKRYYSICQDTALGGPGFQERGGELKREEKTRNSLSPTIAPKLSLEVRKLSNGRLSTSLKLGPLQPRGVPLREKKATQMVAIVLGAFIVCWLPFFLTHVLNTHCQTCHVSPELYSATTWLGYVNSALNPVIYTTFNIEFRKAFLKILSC
observation type: Ki (µM)
Express it in µM; write the number only.

Ask: Item under review: OC1(c2ncccn2)CC2CCC(C1)N2C(c1ccccc1Cl)c1ccccc1Cl (stereo not shown) [SCH 486757] . Reported Ki?
Result: 3.66

====

- procedure summary: Pharmacokinetic profile in the rat
- Format: in vivo
- assay conditions: 10 mg/kg p.o.
observation type: Cmax
Quote the value and follow it with the unit of measurement.

Ask: Item under review: OC1(c2ncccn2)CC2CCC(C1)N2C(c1ccccc1Cl)c1ccccc1Cl (stereo not shown) [SCH 486757] . Reported Cmax?
Result: 127 nM
